- System: PF3D7_0420300 AP2 domain 1 (GST-tagged)
- experimentNotes: gcPBM binding intensity (ln(normalized median fluorescence intensity)); higher = stronger DNA binding
The full ranking holds about 25,000 sequences; the median of “ln(normalized median fluorescence intensity)” is about 9.3, and the highest 2% start at about 10. This excerpt belongs to a sample that is enriched for the highest values.
gcPBM binding intensity (ln) values, listed per item
measurementType: gcPBM binding intensity (ln)

CACGCATACAGACACACACACACACGGATATAAATA [CACACA_site6445]	10.3
ATTTCTCTATCGTAATGTACAAAAAAAAGGAAAAAA [XGTACX_site1323]	9
ATGTAATATATTATATGTACATATTTTTATGTAGAT [XGTACX_site5945]	9.2
AAAAAAAAAAAAAAATACAAGCACATTTATATAAGC [GTGCAC_negctrl_site695]	9.46
TATAAAATTTTTAAAAGTACATATTTTACATAATAC [XGTACX_site2193]	9.1
ATTGCATATAATGGCACACATAAATCCATAATATAT [CACACA_site297]	9.29
AACATATAAAAATATGCACACACAGGAATACAAACA [CACACA_site8127]	10.3
TCAAATTTAATCATAACACACATTCACATATGAATT [CACACA_site3199]	9.16
TTTTGTTATTATAAATAGTAACATTTGTGAATATAT [TGCATGCA_negctrl_site132]	8.92
ATAACAAAATAAAACACACACACAAATGTACATATA [CACACA_site2425]	10.3
ATGGGTATATTTCCACGTACAAAAAATCCGAATTGC [XGTACX_site1490]	9.23
